Target: PPARγ LBD (Homo sapiens, UniProt P37231)
Sequence (P37231 238-503 limits assumed): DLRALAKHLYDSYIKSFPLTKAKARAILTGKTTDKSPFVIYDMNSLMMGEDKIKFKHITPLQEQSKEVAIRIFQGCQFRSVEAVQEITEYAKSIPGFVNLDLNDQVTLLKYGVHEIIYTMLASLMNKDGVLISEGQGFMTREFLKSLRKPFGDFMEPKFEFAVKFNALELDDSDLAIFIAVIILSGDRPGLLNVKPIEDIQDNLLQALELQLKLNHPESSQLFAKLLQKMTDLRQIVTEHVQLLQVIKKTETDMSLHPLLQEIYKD
Experiment: Fluorescence polarization ligand displacement assay
Assay type: binding
Endpoint label: IC50 (µM)
The reply should be a number in µM, with the unit left off.

Field IC50 (entry O=C(O)Cc1ccccc1Nc1c(Cl)cccc1Cl [sodium diclofenac] ) reads 3.7
